# target or test system: Aβ 1-42 (Homo sapiens)
# Construct: The reaction solutions contained Aβ 1-42 at concentrations
# Sequence (P05067 672-713 limits assumed): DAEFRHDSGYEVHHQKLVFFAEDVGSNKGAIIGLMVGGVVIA
# assay notes: Fluorometric H2O2 assay (inhibition of Abeta H2O2 production)
# Assay type: biochemical
# run parameters: concentration required to inhibit 50% of Abeta H2O2 production; read-out: H2O2 IC50
endpoint label: pIC50
Just so you know, pIC50 here is -log10 of the concentration in molar units; reply with that number alone.

>  <smiles code>
CCN(CC)CCNC(=O)c1cnc2c(O)cccn2c1=O

>  <quantitative readout>
5.79

$$$$
>  <smiles code>
O=C1c2ccccc2C(=O)N1CCn1cnc2c(O)cccc2c1=O

>  <quantitative readout>
6.22

$$$$
>  <smiles code>
O=c1c2ccc(I)c(O)c2ncn1-c1ccc(F)cc1F

>  <quantitative readout>
6.42

$$$$
>  <smiles code>
O=C(Nc1nccs1)c1ccc2cccc(O)c2n1

>  <quantitative readout>
6.57

$$$$
>  <smiles code>
CCCc1cnc2c(O)c(I)ccn2c1=O

>  <quantitative readout>
6.48

$$$$

Would you kindly share the measured pIC50 for O=c1c2c(Cl)cc(Cl)c(O)c2ncn1Cc1cccnc1 ?
6.49

Try this compound too: Cc1ccc(-c2ccc(C)cn2)nc1
6.82

What do we get for O=C(NCCc1cnc[nH]1)c1cc(O)c2cccc(O)c2n1 ?
6.92

Another: Cc1cc(C)c2cccnc2c1O
6.15

Repeat with Oc1c(Cl)cc(Cl)c2ccc(-c3ccccn3)nc12
6.19

Try CCNCc1ccc2c(Cl)cc(Cl)c(O)c2n1.Cl next.
6.42
